Assay: Plasma levels in dogs after administration in food-mixed pellets
Type: in vivo
Conditions: dog, oral, 285 mg/kg, chronic, read-out: plasma concentration
PROPERTY: concentration at 1 h (µg/mL)

COMPOUND | REPORTED_VALUE
O=C(O)/C(O)=C/c1c[nH]c2ccccc12 [3-IPA ENOL, enol tautomer of 3-indolylpyruvic acid] | 120
